Where these numbers come from: PubChem BioAssay (EPA / NIEHS)

- Read-out: Apolipoprotein A-V (APOA5) gene, APOA5 (gene 116519)
- Assay text: LTEA_HepaRG_APOA5: Life Technologies and Expression Analysis (LTEA) Assay for Apolipoprotein A-V (APOA5) gene using HepaRG (AID 2283474)
- Assay setup: mRNA level, 48 h; actives raise or lower the signal
Active and inactive are the calls of the source. Rule for the calls: active = hit-call score of the fitted dose curve at least 0.9, where 1 is the maximum; inactive = score below 0.9.
Classes to choose from: TRUE for active, FALSE for inactive

// known answers, use as guide
• O=C(O)C(F)(F)C(F)(F)C(F)(F)C(F)(F)C(F)(F)C(F)(F)C(F)(F)C(F)(F)F = TRUE
• ClC1=C(Cl)[C@]2(Cl)[C@@H]3[C@@H](Cl)[C@H]4O[C@H]4[C@@H]3C1(Cl)C2(Cl)Cl = FALSE

## Input Which outcome was assigned to CCCCCCCCCC[N+](C)(C)CCCCCCCCCC in this test?
## Output FALSE

###

- Assay text: CEETOX_H295R_DOC: CeeTox H295R High-throughput Steroidogenesis Assay for DOC (AID 2283439)
- Assay setup: actives raise or lower the signal
- Procedure: CEETOX_H295R is a cell-based, multiplexed-readout assay that uses H295R, a human adrenal gland cell line, with measurements taken at 48 hours after chemical dosing in a 96-well plate.CEETOX_H295R_DOC is one of 23 assay component(s) measured or calculated from the CEETOX_H295R assay. […] This assay endpoint, CEETOX_H295R_DOC, was analyzed with bidirectional fitting relative to DMSO as the negative control and baseline of activity. […]
Activity calls are given as the source filed them. Rule for the calls: active = hit-call score of the fitted dose curve at least 0.9, where 1 is the maximum; inactive = score below 0.9.
One label from this list, please: active, inactive

- CC1=C2C[C@H]3[C@@H](CC=C4C[C@@H](O)CC[C@@]43C)[C@@H]2CC[C@]12O[C@@H]1C[C@H](C)CN[C@H]1[C@H]2C: inactive
- Clc1ccc(C(c2ccccc2Cl)C(Cl)(Cl)Cl)cc1 (stereo not drawn): inactive
- C=CC(N)=O: inactive
- CCC(=O)O[C@H]1CC[C@H]2[C@@H]3CCC4=CC(=O)CC[C@]4(C)[C@H]3CC[C@]12C: active

## Input Could you check what this test reported for Oc1ccc(Cl)cc1Cl ?
## Output inactive

## Input Query: recorded result category for Cc1ccc(O)c(C)c1 in this test
## Output inactive

## Input Each compound tested received a call. Report the one for CCSC(=O)N(CC)C1CCCCC1 .
## Output inactive

## Input Field: outcome | Entry: c1cc2ccc3cccc4ccc(c1)c2c34
## Output active

## Input In this assay, the call recorded for C[C@]12CCC(=O)C=C1CC[C@@H]1[C@@H]2CC[C@@]2(C)[C@H]1CC[C@]2(C)O was what?
## Output inactive

###

- Read-out: Interferon-gamma inducible Protein 10 (IP10), CXCL10 (gene 3627)
- Assay text: BSK_KF3CT_IP10: BioMAP Diversity Plus: KF3CT Assay for Interferon-gamma inducible Protein 10 (IP10) Biomarker Activity (AID 2283068)
- Assay setup: primary human keratinocytes with fibroblasts; actives raise or lower the signal
- Protocol: BSK_KF3CT is a cell-based, multiplexed-readout assay that uses keratinocytes and foreskin fibroblasts, a human skin primary cell co-culture, with measurements taken at 24 hours after chemical dosing in a 96-well plate.BSK_KF3CT_IP10 is an assay component measured in the BSK_KF3CT assay. It measures IP-10 antibody related to regulation of gene expression using ELISA technology.Data from the assay component BSK_KF3CT_IP10 was analyzed into 1 assay endpoint. […]
Activity calls are given as the source filed them. Rule for the calls: active = hit-call score of the fitted dose curve at least 0.9, where 1 is the maximum; inactive = score below 0.9.
Please state which outcome applies, choosing from active, inactive

Solved cases below.
* CCC(C)c1cc([N+](=O)[O-])cc([N+](=O)[O-])c1O (stereo not given) | active
* CCOP(=S)(OCC)SCSC(C)(C)C | inactive
* COS(=O)(=O)OC | inactive
* Cc1cc2c3c(c1)C(c1ccccc1)=N[C@@H](NC(=O)c1ccncc1)C(=O)N3CC2 | inactive
* c1cc2ccc3cccc4ccc(c1)c2c34 | inactive
* CCCN(CCC)N=O | inactive

## Input Can you look up the reported call for C[C@]12CCC(=O)C=C1CC[C@@H]1[C@@H]2CC[C@]2(C)C(=O)CC[C@@H]12 for me?
## Output inactive

## Input I would be grateful if you could indicate the recorded call for Cc1cccc([N+](=O)[O-])c1 .
## Output inactive

## Input Can you look up the reported call for O=C(NC(=O)c1cc(F)c(F)cc1Cl)Nc1cc(F)ccc1N1CCC(C(=O)O)CC1 for me?
## Output inactive

## Input What outcome does the record of this test show for C[C@]12CCC(=O)C=C1CC[C@@H]1[C@@H]2CC[C@@]2(C)[C@H]1CC[C@]2(C)O ?
## Output inactive

## Input Assay result, entry O=C(NC(=O)c1c(F)cccc1F)Nc1cc(Cl)c(OC(F)(F)C(F)F)c(Cl)c1 — outcome?
## Output inactive

## Input Per the records of this test, what outcome belongs to CC#Cc1cc(C)nc(Nc2ccccc2)n1 ?
## Output inactive

## Input Each compound tested received a call. Report the one for CCOCCOC(C)=O .
## Output inactive

## Input Would you mind telling me which call this test gave CC(C)(O)C(=O)Nc1ccc([N+](=O)[O-])c(C(F)(F)F)c1 ?
## Output inactive

## Input Record request — test call for CCNc1nc(NC(C)C)nc(SC)n1
## Output inactive

## Input Hi, sorry to bother you, what did the test record for Clc1ccc(C(Cl)(Cl)Cl)cc1 ?
## Output inactive
